Cited source: ChEMBL document CHEMBL5512616

Target: Carbonic anhydrase 9 (Homo sapiens, UniProt Q16790)
pKi: −log10 of the molar value.

- structureAsSmiles: "CC(C)(O)[C@@H](O)COc1c2occc2cc2ccc(=O)oc12"
  testSystem: "Carbonic anhydrase 9 (Homo sapiens, UniProt Q16790)"
  pKi: 7.56

* * *

System: MCF7
Assay: cells
Details: Homo sapiens
pIC50: −log10 of the molar value.
Attribute: pIC50
measure: pIC50

- compound: "Nc1nn(C(=O)C23CC4CC(CC(C4)C2)C3)c(N)c1/N=N/c1ccccc1"
  testSystem: "MCF7"
  assayValue: 5.33
- compound: "CC(=O)C(C)/C(C)=N/NC(=O)C12CC3CC(CC(C3)C1)C2 (configuration not stated)"
  testSystem: "MCF7"
  assayValue: 5.08

* * *

Target: Monocarboxylate transporter 1 (Rattus norvegicus, UniProt P53987)
Sequence (P53987 whole entry): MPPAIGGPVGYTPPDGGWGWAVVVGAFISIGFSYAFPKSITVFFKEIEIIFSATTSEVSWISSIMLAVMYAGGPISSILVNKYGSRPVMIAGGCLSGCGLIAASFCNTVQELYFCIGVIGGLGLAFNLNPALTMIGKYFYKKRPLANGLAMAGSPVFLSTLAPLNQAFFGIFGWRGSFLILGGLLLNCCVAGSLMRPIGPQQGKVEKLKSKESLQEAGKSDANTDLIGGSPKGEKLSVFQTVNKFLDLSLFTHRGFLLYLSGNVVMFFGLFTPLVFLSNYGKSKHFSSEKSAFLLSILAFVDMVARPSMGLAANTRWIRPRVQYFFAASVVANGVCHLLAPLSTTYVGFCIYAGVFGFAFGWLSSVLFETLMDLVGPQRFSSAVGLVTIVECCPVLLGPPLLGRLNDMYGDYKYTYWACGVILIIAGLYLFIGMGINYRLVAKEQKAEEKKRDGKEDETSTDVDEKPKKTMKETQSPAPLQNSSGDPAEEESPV
pIC50: −log10 of the molar value.
measure: pIC50

- structureAsSmiles: "N#C/C(=C\\c1c[nH]c2ccccc12)C(=O)O"
  assayValue: "< 6.00"

* * *

pKi values recorded for Carbonic anhydrase 2 (Homo sapiens)
pKi: −log10 of the molar value.

- compound: "Nc1nn(C(=O)C23CC4CC(CC(C4)C2)C3)c(N)c1/N=N/c1ccccc1"
  testSystem: "Carbonic anhydrase 2 (Homo sapiens)"
  qualifier: "="
  pKi: 7.07
- compound: "NS(=O)(=O)c1ccc(CN/C=C/C(=O)/C=C/c2cc3ccccc3oc2=O)cc1"
  testSystem: "Carbonic anhydrase 2 (Homo sapiens)"
  qualifier: "="
  pKi: 7.36
- compound: "C=CCN1CCN(Cc2c(O)ccc3c(C)cc(=O)oc23)CC1"
  testSystem: "Carbonic anhydrase 2 (Homo sapiens)"
  qualifier: "<"
  pKi: 5.00
- compound: "CC(C(=O)NCCOc1ccc2oc(=O)ccc2c1)c1ccc(-c2ccccc2)c(F)c1 (stereo unspecified)"
  testSystem: "Carbonic anhydrase 2 (Homo sapiens)"
  qualifier: "<"
  pKi: 5.00
- compound: "CC(=O)C(C)/C(C)=N/NC(=O)C12CC3CC(CC(C3)C1)C2 (stereo unspecified)"
  testSystem: "Carbonic anhydrase 2 (Homo sapiens)"
  qualifier: "="
  pKi: 6.59
- compound: "Cc1cccc(N2C(=O)CSC2c2cn(-c3ccccc3)nc2-c2cc3ccccc3oc2=O)c1 (stereo unspecified)"
  testSystem: "Carbonic anhydrase 2 (Homo sapiens)"
  qualifier: "<"
  pKi: 5.00

* * *

Target: Monocarboxylate transporter 4 (Homo sapiens)
pIC50: −log10 of the molar value.

- structureAsSmiles: "CC[C@](C)(OCc1cc(-c2cccc(OC3CC3)c2)n(-c2ccccc2N2CCC2)n1)C(=O)O"
  testSystem: "Monocarboxylate transporter 4 (Homo sapiens)"
  pIC50: 9.44

* * *

log10 IC50 values recorded for Sodium/hydrogen exchanger 1 (Homo sapiens)
measure: log10 IC50 (log10 of the value in µM)

- structureAsSmiles: "Cc1c[nH]c(=O)n(CC(=O)N=C(N)N)c1=O"
  log10 IC50: -0.81
- structureAsSmiles: "Cn1c(C(=O)N=C(N)N)cc2ccccc21"
  log10 IC50: 0.00
- structureAsSmiles: "Cc1cccc2c1cc(C(=O)N=C(N)N)n2C"
  log10 IC50: -1.00
- structureAsSmiles: "COc1ccc(CN2CCN(CCOc3ccc(C(=O)NC(=N)N)cc3NC(=O)c3sccc3C)CC2)c(OC)c1OC"
  log10 IC50: -1.17
- structureAsSmiles: "COc1ccc(CN2CCN(Cc3ccc(C(=O)N=C(N)N)cc3NC(=O)c3ccc(C(F)(F)F)cc3)CC2)c(OC)c1OC"
  log10 IC50: 0.55
- structureAsSmiles: "CC(C)N1C(=O)C(C)(C)Oc2cc(C(=O)N=C(N)N)ccc21"
  log10 IC50: -0.70
- structureAsSmiles: "CC(C)N1C(=O)C(C)(C)Oc2ccc(C(=O)N=C(N)N)cc21"
  log10 IC50: -0.92
- structureAsSmiles: "Cc1nc2c(cc1C(=O)N=C(N)N)CCCCC2"
  log10 IC50: -1.77
- structureAsSmiles: "Cn1c(=O)n(Cc2nnc(N)[nH]2)c(=O)c2ccccc21"
  log10 IC50: 0.76
- structureAsSmiles: "CCCCCOc1ccc(C(=O)CN2CCN(Cc3ccc(OC)c(OC)c3OC)CC2)cc1C(=O)N=C(N)N"
  log10 IC50: -0.97
- structureAsSmiles: "NC(N)=NC(=O)c1ccc2c(Br)cccc2c1"
  log10 IC50: -2.00
- structureAsSmiles: "N=C(N)NC(=O)[C@H]1C[C@@H]1c1ccccc1"
  log10 IC50: -0.30
- structureAsSmiles: "COc1ccc(CN2CCN(CCOc3ccc(C(=O)N=C(N)N)cc3[N+](=O)[O-])CC2)c(OC)c1OC"
  log10 IC50: -0.98
- structureAsSmiles: "NC(N)=NC(=O)c1cc2cccc3c2n1C(=O)CCCC3"
  log10 IC50: -2.22

* * *

Attribute: pIC50
Tested on: A549
Assay: cells
Conditions: Homo sapiens
pIC50: −log10 of the molar value.

- compound: "CC(=O)C(C)/C(C)=N/NC(=O)C12CC3CC(CC(C3)C1)C2 (configuration not stated)"
  pIC50: 5.36
- compound: "Nc1nn(C(=O)C23CC4CC(CC(C4)C2)C3)c(N)c1/N=N/c1ccccc1"
  pIC50: 5.81

* * *

Biological target: Monocarboxylate transporter 4 (Homo sapiens, UniProt O15427)
Sequence (O15427 whole entry): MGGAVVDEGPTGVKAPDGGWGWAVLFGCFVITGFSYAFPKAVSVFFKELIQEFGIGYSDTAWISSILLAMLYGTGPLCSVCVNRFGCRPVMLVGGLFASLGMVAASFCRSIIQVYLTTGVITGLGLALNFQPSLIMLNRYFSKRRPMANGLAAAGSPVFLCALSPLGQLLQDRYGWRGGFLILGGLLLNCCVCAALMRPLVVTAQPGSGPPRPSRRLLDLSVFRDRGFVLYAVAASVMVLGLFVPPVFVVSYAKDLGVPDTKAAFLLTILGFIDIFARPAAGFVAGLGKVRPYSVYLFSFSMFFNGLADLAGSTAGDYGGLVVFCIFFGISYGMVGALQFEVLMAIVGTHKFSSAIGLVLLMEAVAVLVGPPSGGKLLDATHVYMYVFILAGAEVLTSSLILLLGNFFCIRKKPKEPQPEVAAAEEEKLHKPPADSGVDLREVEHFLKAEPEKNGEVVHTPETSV
measure: IC50

- structureAsSmiles: "O=C(Nc1ccccc1C(=O)O)c1cc(S(=O)(=O)c2ccccc2)ccc1Cl"
  assayValue: "> 50 µM"

* * *

Target: Carbonic anhydrase 9 (Homo sapiens)
measure: Ki

- structureAsSmiles: "C=C(C)[C@@H]1CC[C@]2(COS(N)(=O)=O)CC[C@]3(C)[C@H](CC[C@@H]4[C@@]5(C)CC[C@H](OC(=O)NCC)C(C)(C)[C@@H]5CC[C@]43C)[C@@H]12"
  testSystem: "Carbonic anhydrase 9 (Homo sapiens)"
  assayValue: "4.46 nM"
- structureAsSmiles: "C=C(C)[C@@H]1CC[C@]2(COS(N)(=O)=O)CC[C@]3(C)[C@H](CC[C@@H]4[C@@]5(C)CC[C@H](OC(C)=O)C(C)(C)[C@@H]5CC[C@]43C)[C@@H]12"
  testSystem: "Carbonic anhydrase 9 (Homo sapiens)"
  assayValue: "1.25 nM"

* * *

Attribute: IC50
Target: Sodium/hydrogen exchanger 1 (Homo sapiens, UniProt P19634)
Sequence (P19634 whole entry): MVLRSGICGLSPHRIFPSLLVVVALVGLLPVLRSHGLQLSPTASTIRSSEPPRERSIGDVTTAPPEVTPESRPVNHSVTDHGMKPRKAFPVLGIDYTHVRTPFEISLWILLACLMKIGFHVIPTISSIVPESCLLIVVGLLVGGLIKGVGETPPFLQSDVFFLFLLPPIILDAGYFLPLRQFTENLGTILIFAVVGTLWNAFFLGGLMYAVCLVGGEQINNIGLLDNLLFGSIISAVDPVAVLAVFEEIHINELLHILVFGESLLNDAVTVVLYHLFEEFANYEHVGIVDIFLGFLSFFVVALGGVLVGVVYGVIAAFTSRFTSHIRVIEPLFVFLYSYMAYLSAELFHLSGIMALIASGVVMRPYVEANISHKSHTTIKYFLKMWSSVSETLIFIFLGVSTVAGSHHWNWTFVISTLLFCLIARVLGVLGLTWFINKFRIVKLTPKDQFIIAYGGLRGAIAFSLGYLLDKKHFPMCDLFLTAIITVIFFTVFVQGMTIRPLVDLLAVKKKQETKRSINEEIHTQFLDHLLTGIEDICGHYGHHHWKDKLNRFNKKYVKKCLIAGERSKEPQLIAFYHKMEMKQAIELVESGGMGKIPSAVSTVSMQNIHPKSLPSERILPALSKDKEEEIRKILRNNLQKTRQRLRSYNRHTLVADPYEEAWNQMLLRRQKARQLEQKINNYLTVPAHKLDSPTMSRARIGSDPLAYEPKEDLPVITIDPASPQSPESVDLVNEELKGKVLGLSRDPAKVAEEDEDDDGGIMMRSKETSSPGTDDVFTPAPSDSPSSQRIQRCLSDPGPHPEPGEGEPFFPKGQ
Format: cell-based, Platelet
measure: IC50 (µM)

- molecule: "NC(N)=NC(=O)c1cc(Cl)c(N)cc1N"
  measure: "IC50"
  assayValue: 16
- molecule: "Cc1cc(C(C)C)c(S(C)(=O)=O)cc1C(=O)N=C(N)N"
  measure: "IC50"
  assayValue: 0.002
- molecule: "Cc1ccc(-c2cc(C)c(C(=O)N=C(N)N)cc2S(C)(=O)=O)cc1"
  measure: "IC50"
  assayValue: 0.025
- molecule: "Cc1cc(S(C)(=O)=O)c(S(C)(=O)=O)cc1C(=O)NC(=N)N [RIMEPORIDE]"
  measure: "IC50"
  assayValue: 0.113
- molecule: "NC(N)=NC(=O)c1cc(Cl)c(N)nc1N"
  measure: "IC50"
  assayValue: 1.3
- molecule: "CC(=O)Nc1cc([N+](=O)[O-])c(Cl)cc1C(=O)N=C(N)N"
  measure: "IC50"
  assayValue: 3.6
- molecule: "Cc1cc(-n2cccc2)c(S(C)(=O)=O)cc1C(=O)NC(=N)N [ENIPORIDE]"
  measure: "IC50"
  assayValue: 0.08
- molecule: "NC(N)=NC(=O)c1nc(Cl)c(N)cc1N"
  measure: "IC50"
  assayValue: 2.3
- molecule: "N=C(N)NC(=O)c1nc(Cl)c(N2CCCCCC2)nc1N [N,N-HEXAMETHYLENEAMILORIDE]"
  measure: "IC50"
  assayValue: 3.3
- molecule: "CCN(c1nc(N)c(C(=O)NC(=N)N)nc1Cl)C(C)C [5-(N-ETHYL-N-ISOPROPYL)AMILORIDE]"
  measure: "IC50"
  assayValue: 0.5

* * *

Target: Carbonic anhydrase 2 (Homo sapiens, UniProt P00918)

- structureAsSmiles: "CC(C)(O)[C@@H](O)COc1c2occc2cc2ccc(=O)oc12"
  Ki: "> 10 µM"

* * *

Biological target: Monocarboxylate transporter 1 (Homo sapiens)
Sequence (P53985 whole entry): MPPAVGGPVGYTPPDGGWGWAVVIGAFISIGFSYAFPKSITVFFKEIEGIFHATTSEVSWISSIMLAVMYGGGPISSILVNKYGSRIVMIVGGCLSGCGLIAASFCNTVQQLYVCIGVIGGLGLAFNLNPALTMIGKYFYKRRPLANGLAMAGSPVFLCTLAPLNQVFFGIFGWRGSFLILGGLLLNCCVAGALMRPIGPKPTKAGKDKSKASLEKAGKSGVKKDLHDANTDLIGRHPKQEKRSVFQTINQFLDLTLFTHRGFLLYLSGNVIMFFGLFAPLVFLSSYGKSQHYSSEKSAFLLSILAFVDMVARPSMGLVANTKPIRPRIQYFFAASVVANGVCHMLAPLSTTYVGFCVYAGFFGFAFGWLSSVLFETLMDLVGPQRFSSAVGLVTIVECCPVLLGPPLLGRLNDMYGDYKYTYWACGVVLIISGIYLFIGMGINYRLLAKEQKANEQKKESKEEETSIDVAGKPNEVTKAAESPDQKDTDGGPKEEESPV
pIC50: −log10 of the molar value.

- structureAsSmiles: "CC[C@](C)(OCc1cc(-c2cccc(OC3CC3)c2)n(-c2ccccc2N2CCC2)n1)C(=O)O"
  pIC50: 4.19

* * *

pKi values recorded for Carbonic anhydrase 9 (Homo sapiens)
pKi: −log10 of the molar value.

- structureAsSmiles: "CC(=O)c1ccc(-c2cc3ccccc3oc2=O)nc1C"
  pKi: 6.20
- structureAsSmiles: "CC(C)(O)[C@@H](O)COc1c2occc2cc2ccc(=O)oc12"
  pKi: 7.56
- structureAsSmiles: "Cc1cc(=O)oc2cc(OCCCCCNc3nc4cc(-c5ccccc5)ccc4o3)ccc12"
  pKi: 7.49
